# Tested on: MCF7 breast
# test.name: NCI tumour cell line growth inhibition, 48 h
experimental.endpoint: TGI (µM)
Could you give me the number in µM? Just the number is fine.

Fill in the recorded TGI for this compound, with MCF7 breast as test system: COc1cc(CCNC2=CC(=O)c3nc[nH]c3C2=O)ccc1O 33.5

And what about the compound O=C1C(=O)c2c(nc3ccc(C(F)(F)F)cn23)-c2ccccc21 ? 0.4

And what about the compound Cn1c(COC(=O)NCCn2ccnc2)nc2c(N3CCOCC3)nc(-c3ccccc3)nc21 ? 1.89

---

Kindly state TGI for each of the entries shown.
# Tested on: UO-31 renal
# test.name: NCI tumour cell line growth inhibition, 48 h

For the compound O=c1c(Cc2ccccc2)c(O)cc2n1CCC2 , what TGI is on record? > 100 µM

And what about the compound CCOC(=O)c1c(-c2ccc(OC)cc2)ccn1C ? > 10 µM

And what about the compound Oc1ccc(Cl)cc1C=Nc1cnc2ccccc2c1 ? > 100 µM

And what about the compound Cn1c(COC(=O)NCCc2ccccn2)nc2c(N3CCOCC3)nc(Cl)nc21 ? 2.45 µM

---

# Test system: HCT-15 colon
# test.name: NCI tumour cell line growth inhibition, 48 h
experimental.endpoint: TGI

For the compound CN(C)C(=S)/N=c1\ss/c(=N\C(=S)N(C)C)n1-c1cccc(Cl)c1 , what TGI is on record? > 100 µM

And what about the compound N#Cc1ccccc1NC(=O)C(=O)C(C(=O)c1ccccc1F)C1OC(=O)c2ccccc21 (configuration not stated) ? > 100 µM

And what about the compound COC(=O)c1c2c(cc3c1CC1(Cc4cc5c(c(C=O)c4C1)CCC5)C3)CCC2 (configuration not stated) ? > 100 µM

And what about the compound Cc1cccc(C2NC(=O)c3ccccc3N2)c1 (configuration not stated) ? > 100 µM

And what about the compound NC(=O)[C@H](Cc1ccc(O)cc1)Nc1c(O)c2c(c(O)c1Cl)C(=O)C=CC2=O ? 3.89 µM

And what about the compound COc1ccc(-c2nc3ccccc3s2)cc1OC ? > 100 µM

And what about the compound O=C1C(=O)c2c(nc3ccc(C(F)(F)F)cn23)-c2ccccc21 ? 0.656 µM

And what about the compound CCOP(=O)(/C=C/n1cc(C)c(=O)[nH]c1=O)OCC ? > 100 µM

And what about the compound COc1nc(Cl)nc(N[C@H](C)c2c3ccccc3cc3ccccc23)n1 ? 27 µM

And what about the compound O=C1NC(O)c2cc3ccccc3cc2O1 (configuration not stated) ? > 100 µM

And what about the compound N#Cc1nc(CCc2nc(C#N)c(N)o2)oc1N ? > 10 µM

And what about the compound COc1cc2c(cc1OCCNC(=O)/C=C1\C[C@H]3C=Nc4cc(OCc5ccccc5)c(OC)cc4C(=O)N3C1)N=C[C@@H]1CCCN1C2=O ? > 100 µM

And what about the compound COc1cc2c(cc1OC)C(=O)N(c1ccc(OCCN3CCCC3)cc1)C2 ? > 100 µM

And what about the compound N#Cc1c(NC(=S)Nc2ccc(Cl)cc2)sc2c1CCN(N1CCc3c(sc(NC(=S)Nc4ccc(Cl)cc4)c3C#N)C1)C2 ? > 100 µM

And what about the compound CC1=NN(C(=O)CC(=O)Nc2cccc(C)c2)C(=O)C1N=Nc1ccc(S(=O)(=O)CCOS(=O)(=O)O)cc1 (configuration not stated) ? 4.83 µM

And what about the compound C[n+]1cccc2ccc3cccnc3c21 ? > 100 µM

And what about the compound O=C(O)c1c(CC(Cc2ccc3c(c2)CCC3)C(=O)O)ccc2c1CCC2 (configuration not stated) ? > 100 µM

And what about the compound CCOc1c(Br)cc(Br)cc1C=C(C#N)C#N ? > 10 µM

And what about the compound CCCCCCCC(=O)OCC/C=C/C1OC1C1OC(=O)/C=C\C=C\C(=O)N(C(C)=O)C(=O)/C=C(/C)CCC2OC2C1OC(=O)NC(C)=O (configuration not stated) ? 18.4 µM

And what about the compound CC(C)Cc1cnc(CC(C)C)c(=O)[nH]1 ? > 100 µM

And what about the compound Cn1c(COC(=O)NCCn2ccnc2)nc2c(N3CCOCC3)nc(-c3ccccc3)nc21 ? 0.484 µM

And what about the compound CCOC(=O)c1c(N)sc2c1C(C(=O)OCC)CCCC2 (configuration not stated) ? > 100 µM

---

# System: MALME-3M melanoma
# test.name: NCI tumour cell line growth inhibition, 48 h
Kindly state TGI for each of the entries shown.
Could you give me the number in µM? Just the number is fine.

For the molecule Cc1ccccc1NC(=O)O/N=C(\Cl)C(C)C , what TGI is on record? 5.73

And what about the molecule CCCCNC(c1ccc(Cl)cc1)C(O)c1ccc(Cl)cc1 (stereo not given) ? 3.08

And what about the molecule CCCC(=O)O[C@]1(C)CC[C@@H]2[C@H]3[C@@H]1[C@@H]1C[C@@](C)(O)[C@H](OC)CC[C@](C)(OC(=O)[C@@H]2C)[C@H]3O1 ? 33.8

---

# Tested on: LXFL 529 NSCLC
# test.name: NCI tumour cell line growth inhibition, 48 h
experimental.endpoint: TGI

For the compound Cc1ccc(C2=CC(=O)c3ccccc3C2=O)n1-c1ccccc1 , what TGI is on record? > 100 µM

And what about the compound O=C1NC(O)n2c(=O)[nH]c(=O)n21 (stereo not drawn) ? > 100 µM

And what about the compound c1ccc2c(c1)[nH]c1c2nc2ccccn21 ? > 100 µM

And what about the compound CN1CCCC2[C@@H]3CCC4c5nonc5CC[C@]4(C)C3CC[C@@]21C (stereo partly drawn) ? > 100 µM

And what about the compound C1=CC(=P(c2ccccc2)(c2ccccc2)c2ccccc2)C=C1 ? 13 µM

And what about the compound COC(=O)C1CC(c2ccc(OC)c(OC)c2)OC1=O (mixture of isomers) ? > 100 µM

And what about the compound NC(=O)CCC(N=c1c2ccccc2n(O)c2ccccc12)C(=O)O (stereo not drawn) ? > 100 µM

And what about the compound CCOc1ccc(NC(=O)/C(CC(=O)c2c[n+](=O)c3ccccc3n2[O-])=N\OCCCc2ccccc2)cc1 ? > 100 µM

And what about the compound Cc1nnc2n1N=C(c1ccccc1)C(c1ccccc1)S2 (stereo not drawn) ? > 100 µM

And what about the compound Cc1cc(=O)[nH]c(NNC(C#N)c2cccc([N+](=O)[O-])c2)n1 (stereo not drawn) ? > 100 µM

And what about the compound Clc1ccc2c(NCCCCCCNc3ccnc4cc(Cl)ccc34)ccnc2c1 ? 7.3 µM

And what about the compound O=C1CC23CCCCCCCCCCC2(C1)CC(=O)C3 (stereo not drawn) ? > 100 µM

And what about the compound C[C@@H]1C[C@@H]([C@H](O)CC2CC(=O)NC(=O)C2)C(=O)[C@@H](C)C1 ? 0.623 µM

---

# Test system: UACC-62 melanoma
# test.name: NCI tumour cell line growth inhibition, 48 h
experimental.endpoint: TGI (µM)
Could you give me the number in µM? Just the number is fine.

Fill in the recorded TGI for this compound, with UACC-62 melanoma as test system: COc1ccc(-n2c(=S)sc3c(Cl)nc(C)nc32)c(OC)c1 4.69

And what about the compound COc1ccc(-c2ccc(C(=O)C=P(c3ccccc3)(c3ccccc3)c3ccccc3)cc2)cc1 ? 28.9

And what about the compound CC(=O)NC1C(OCc2ccccc2)OC(CO)C(O)C1OC(C)C(=O)N[C@@H](C)C(=O)N[C@H](CCC(=O)NCCNCCNc1c2ccccc2nc2cccc([N+](=O)[O-])c12)C(N)=O (stereo partly drawn) ? 0.199

And what about the compound CC1=C(C)C(=O)C(C2=CC(=O)c3ccccc3C2=O)=C(C2=CC(=O)c3ccccc3C2=O)C1=O ? 27.6

And what about the compound Cc1ccc(/C(=N/Nc2ccc([N+](=O)[O-])cc2)Sc2cc(Cl)c(C)cc2S(N)(=O)=O)cc1 ? 3.64

And what about the compound COc1nc(Cl)nc(N[C@H](C)c2c3ccccc3cc3ccccc23)n1 ? 13.8

And what about the compound COc1ccccc1NC(=O)C(=O)C(C(=O)c1ccccc1F)C1OC(=O)c2ccccc21 (stereo not drawn) ? 34.9

And what about the compound O=P1(N(CCCl)CCCl)Oc2ccc(Cl)cc2C(C(Cl)(Cl)Cl)c2cc(Cl)ccc2O1 (stereo not drawn) ? 26.7

And what about the compound CCN(CC)C(=S)SC(C(=O)Nc1nnc(-c2ccc(Cl)cc2)o1)c1ccccc1 (stereo not drawn) ? 23.6

---

# System: UO-31 renal
# test.name: NCI tumour cell line growth inhibition, 48 h
experimental.endpoint: TGI

For the molecule CC(C)CCCC(C)[C@H]1CCC(C2C[C@@H](O)[C@@H]3CC(O)[C@@H](O)C[C@]3(CO)C2=O)[C@]1(C)CCO (stereo not given in full) , what TGI is on record? 49.8 µM

And what about the molecule CN(CCCCCl)P(=O)(OCc1ccc([N+](=O)[O-])o1)OCC1OC(n2ccc(N)nc2=O)C(O)C1O (stereo not given) ? > 100 µM

And what about the molecule COc1cc(C2CC(c3ccc(Nc4nc(NCCO)nc(NCCO)n4)cc3)=NN2c2cc(Cl)cc(Cl)c2)cc(OC)c1OC (stereo not given) ? 8.09 µM

And what about the molecule COC(=O)C(C(=O)C(=O)Nc1c(C)cccc1C(C)(C)C)c1nc2ccc(Cl)cc2[nH]c1=O (stereo not given) ? > 100 µM

And what about the molecule CC(C)(C)C#COC(=O)c1ccccc1 ? > 100 µM

And what about the molecule COc1ccc(-n2cc(-c3ccc(OC)c(OC)c3)[nH]c2=O)cc1 ? > 100 µM

And what about the molecule CC(=O)CC1(CBr)Nc2ccc([N+](=O)[O-])cc2NC1=O (stereo not given) ? > 100 µM

And what about the molecule O=P1(N(CCCl)CCCl)Oc2ccc(Cl)cc2C(C(Cl)(Cl)Cl)c2cc(Cl)ccc2O1 (stereo not given) ? > 100 µM

And what about the molecule O=C(Nc1ccccc1)N1CCN(C(=O)Nc2ccccc2)C1=S ? 60.7 µM

And what about the molecule CCOC(=O)NC(=S)N(CC(=O)c1cc(OC)c(OC)c(OC)c1)c1ccc(Cl)cc1 ? > 100 µM

The measurements presented in this section are drawn from PubChem BioAssay (NCI).
